Items are presented alongside their recorded viability at 24 h, 31.3 µM.
assay info: Cytotoxicity in human HaCaT cells assessed as cell viability at 31.3 uM after 24 hrs by neutral red uptake assay relative to control
Type: cell-based
test conditions: read-out: Activity
attribute measured: viability at 24 h, 31.3 µM (%)

>  <compound>
c1nc(NCC2CCCO2)c2nc[nH]c2n1 (stereo not given)

>  <attribute measured>
viability at 24 h, 31.3 µM

>  <measured number>
104

$$$$
>  <compound>
c1csc(CNc2ncnc3c2ncn3C2CCCO2)c1 (stereo not given)

>  <attribute measured>
viability at 24 h, 31.3 µM

>  <measured number>
102

$$$$
>  <compound>
Clc1nc(NCc2ccco2)c2ncn(C3CCCO3)c2n1 (stereo not given)

>  <attribute measured>
viability at 24 h, 31.3 µM

>  <measured number>
109

$$$$
>  <compound>
Clc1nc(NCC2CCCO2)c2ncn(C3CCCO3)c2n1 (stereo not given)

>  <attribute measured>
viability at 24 h, 31.3 µM

>  <measured number>
109

$$$$
>  <compound>
OCc1ccc(CNc2ncnc3c2ncn3C2CCCO2)o1 (stereo not given)

>  <attribute measured>
viability at 24 h, 31.3 µM

>  <measured number>
108

$$$$

----------
assay info: Cytotoxicity in human HaCaT cells assessed as cell viability at 3.9 uM after 24 hrs by neutral red uptake assay relative to control
Format: cell-based
test conditions: read-out: Activity
// reported viability at 24 h, 3.9 µM per item

>  <compound>
Clc1nc(NCC2CCCO2)c2ncn(C3CCCO3)c2n1 (stereo not given)

>  <viability at 24 h, 3.9 µM [%]>
104

$$$$
>  <compound>
Clc1nc(NCc2ccco2)c2ncn(C3CCCO3)c2n1 (stereo not given)

>  <viability at 24 h, 3.9 µM [%]>
107

$$$$
>  <compound>
c1nc(NCC2CCCO2)c2nc[nH]c2n1 (stereo not given)

>  <viability at 24 h, 3.9 µM [%]>
102

$$$$
>  <compound>
c1csc(CNc2ncnc3c2ncn3C2CCCO2)c1 (stereo not given)

>  <viability at 24 h, 3.9 µM [%]>
101

$$$$
>  <compound>
OCc1ccc(CNc2ncnc3c2ncn3C2CCCO2)o1 (stereo not given)

>  <viability at 24 h, 3.9 µM [%]>
100

$$$$

----------
assay info: Cytotoxicity in human HaCaT cells assessed as cell viability at 7.8 uM after 24 hrs by neutral red uptake assay relative to control
Type: cell-based
test conditions: read-out: Activity

>  <compound>
c1nc(NCC2CCCO2)c2nc[nH]c2n1 (stereo not given)

>  <unit abbreviation>
%

>  <viability at 24 h, 7.8 µM>
104

$$$$
>  <compound>
Clc1nc(NCC2CCCO2)c2ncn(C3CCCO3)c2n1 (stereo not given)

>  <unit abbreviation>
%

>  <viability at 24 h, 7.8 µM>
103

$$$$
>  <compound>
c1csc(CNc2ncnc3c2ncn3C2CCCO2)c1 (stereo not given)

>  <unit abbreviation>
%

>  <viability at 24 h, 7.8 µM>
101

$$$$
>  <compound>
Clc1nc(NCc2ccco2)c2ncn(C3CCCO3)c2n1 (stereo not given)

>  <unit abbreviation>
%

>  <viability at 24 h, 7.8 µM>
107

$$$$
>  <compound>
OCc1ccc(CNc2ncnc3c2ncn3C2CCCO2)o1 (stereo not given)

>  <unit abbreviation>
%

>  <viability at 24 h, 7.8 µM>
100

$$$$
